Here the recorded log10 IC50 is given for each entry.
- assayedSystem: recombinant human kappa (KOR) opioid receptor (Homo sapiens (Human), UniProt P41145)
- measurementNotes: biochemical
- Type: binding
- particulars: HEK293 cell membranes, 0.5 nM [3H]diprenorphine
Square brackets hold non-standard residues; d marks the D form. Peptide text beside a SMILES is read from it. * marks the point of attachment. Piperidin1yl(4-NH2,4-CO2Me) = COC(=O)C1(N)CCN(*)CC1; Pyrrolidinyl(3-NH2,3-CO2Me) = COC(=O)C1(N)CCN(*)C1; Piperidin1yl(4-NH2,4-COOH) = NC1(C(=O)O)CCN(*)CC1; dAla(cPr) = N[C@H](CC1CC1)C(=O)O
valueKind: log10 IC50 (log10 of the value in nM)

>>> experimentalresult("CC(C)C[C@@H](NC(=O)[C@@H](Cc1ccccc1)NC(=O)[C@H](N)Cc1ccccc1)C(=O)N[C@H](CCCCN)C(=O)NCC(=O)N1CCC(N)(C(=O)O)CC1 [Compound 67] (H-[dF][dF][dL][dK]G-{Piperidin1yl(4-NH2,4-COOH)})")
1.39
>>> experimentalresult("CCCC[C@@H](NC(=O)[C@@H](Cc1ccccc1)NC(=O)[C@H](N)Cc1ccccc1)C(=O)N[C@H](Cc1cnc(N)nc1)C(=O)N1CCC(N)(C(=O)OC)C1 (some centres unmarked)")
1.63
>>> experimentalresult("COC(=O)C1(N)CCN(C(=O)[C@@H](CCCCN)NC(=O)[C@@H](CC2CC2)NC(=O)[C@@H](Cc2ccccc2)NC(=O)[C@H](N)Cc2ccccc2)CC1 [Compound 112] (H-[dF][dF][dAla(cPr)][dK]-{Piperidin1yl(4-NH2,4-CO2Me)})")
0.00
>>> experimentalresult("CC(C)C[C@@H](NC(=O)[C@@H](Cc1ccccc1)NC(=O)[C@H](N)Cc1ccccc1)C(=O)N[C@H](CCCCN)C(=O)N1CCN(C(=O)N(C)C)CC1")
-0.44
>>> experimentalresult("CNC(=O)NC1CCN(C(=O)[C@@H](CCCCN)NC(=O)[C@@H](CC(C)C)NC(=O)[C@@H](Cc2ccccc2)NC(=O)[C@H](N)Cc2ccccc2)CC1")
-0.38
>>> experimentalresult("CC(C)C[C@@H](NC(=O)[C@@H](Cc1ccccc1)NC(=O)[C@H](N)Cc1ccccc1)C(=O)N[C@H](CCCCN)C(=O)N1CCC(NC(=O)C(=O)NC2CC2)CC1")
-1.02
>>> experimentalresult("CC(C)C[C@@H](NC(=O)[C@@H](Cc1ccccc1)NC(=O)[C@H](N)Cc1ccccc1)C(=O)N[C@H](CCCCN)C(=O)N1CCC(NC(=O)C(N)C(=O)O)CC1 (some centres unmarked)")
-0.52
>>> experimentalresult("CC(C)C[C@@H](NC(=O)[C@@H](Cc1ccccc1)NC(=O)[C@H](N)Cc1ccccc1)C(=O)N[C@H](CCCCN)C(=O)NCc1cc[nH]c(=O)c1")
-0.39
>>> experimentalresult("CC(C)C[C@@H](NC(=O)[C@@H](Cc1ccccc1)NC(=O)[C@H](N)Cc1ccccc1)C(=O)N[C@H](CCCCN)C(=O)N(C)C[C@H](O)[C@@H](O)[C@H](O)[C@H](O)CO")
-0.43
>>> experimentalresult("CC(C)C[C@@H](NC(=O)[C@@H](Cc1ccccc1)NC(=O)[C@H](N)Cc1ccccc1)C(=O)N[C@H](CCCCN)C(=O)N1CCN(C(=O)C(=O)N(C)C)CC1")
0.26
>>> experimentalresult("CC(C)C[C@@H](NC(=O)[C@@H](Cc1ccccc1)NC(=O)[C@H](N)Cc1ccccc1)C(=O)N[C@H](CCCCN)C(=O)NCc1ccc(O)c(O)c1")
-0.17
>>> experimentalresult("COC(=O)C1(N)CCN(C(=O)[C@@H](CCCCN)NC(=O)[C@@H](CC2CC2)NC(=O)[C@@H](Cc2ccccc2)NC(=O)[C@H](N)Cc2ccccc2)C1 (some centres unmarked) [Compound 118] (H-[dF][dF][dAla(cPr)][dK]-{Pyrrolidinyl(3-NH2,3-CO2Me)})")
-0.48
>>> experimentalresult("CCOC(=O)C(N)C(=O)NC1CCN(C(=O)[C@@H](CCCCN)NC(=O)[C@@H](CC(C)C)NC(=O)[C@@H](Cc2ccccc2)NC(=O)[C@H](N)Cc2ccccc2)CC1 (some centres unmarked)")
-0.64
>>> experimentalresult("CC(C)C[C@@H](NC(=O)[C@@H](Cc1ccccc1)NC(=O)[C@H](N)Cc1ccccc1)C(=O)N[C@H](CCCCN)C(=O)N1CCC(NC(=O)C(=O)N(C)C)CC1")
-0.43
>>> experimentalresult("CC(C)C[C@@H](NC(=O)[C@@H](Cc1ccccc1)NC(=O)[C@H](N)Cc1ccccc1)C(=O)N[C@H](CCCCN)C(=O)N1CCN(C(=O)C(=O)NC2CC2)CC1")
-0.10
>>> experimentalresult("CC(C)C[C@@H](NC(=O)[C@@H](Cc1ccccc1)NC(=O)[C@H](N)Cc1ccccc1)C(=O)N[C@H](CCCCN)C(=O)N1CCC(NC(=O)[C@@H](N)CC(N)=O)CC1")
-0.32
>>> experimentalresult("CCNC(=O)N1CCN(C(=O)[C@@H](CCCCN)NC(=O)[C@@H](CC(C)C)NC(=O)[C@@H](Cc2ccccc2)NC(=O)[C@H](N)Cc2ccccc2)CC1")
-0.33
>>> experimentalresult("CCNC(=O)C(=O)NC1CCN(C(=O)[C@@H](CCCCN)NC(=O)[C@@H](CC(C)C)NC(=O)[C@@H](Cc2ccccc2)NC(=O)[C@H](N)Cc2ccccc2)CC1")
-0.51
>>> experimentalresult("CC(C)C[C@@H](NC(=O)[C@@H](Cc1ccccc1)NC(=O)[C@H](N)Cc1ccccc1)C(=O)N[C@H](CCCCN)C(=O)N1CCC(NC(=O)/C=C/C(=O)O)CC1")
0.16
>>> experimentalresult("CC(C)C[C@@H](NC(=O)[C@@H](Cc1ccccc1)NC(=O)[C@H](N)Cc1ccccc1)C(=O)N[C@H](CCCCN)C(=O)NCCOCCO")
-0.57

FYI, the data here is from patent US12215173B2.
